# ASSAY_REMARKS: Solubilities at room temperature (about 25°C) in various solvents
# Type: physicochemical
# MEASUREMENT_CONTEXT: organic solvent or mixture; isopropanol, room temperature (about 25°C); read-out: Solubility in isopropanol
ASSAY_METRIC: solubility
Please answer in the form of a number followed by its unit of measurement.

[Q] Please list solubility recorded for the molecule CC(C)(C)C(=O)OCOC(=O)[C@@H]1N2C(=O)[C@@H](NC(=O)[C@H](N)c3ccccc3)[C@H]2SC1(C)C
[A] 12 mg/mL

###

# ASSAY_REMARKS: Solubilities at room temperature (about 25°C) in various solvents
# Format: physicochemical
# MEASUREMENT_CONTEXT: organic solvent or mixture; isopropylether, room temperature (about 25°C); read-out: Solubility in isopropylether
ASSAY_METRIC: solubility (µg/mL)
The answer is to be given in µg/mL; state only the numeric part.

[Q] Please list solubility recorded for the compound CC(C)(C)C(=O)OCOC(=O)[C@@H]1N2C(=O)[C@@H](NC(=O)[C@H](N)c3ccccc3)[C@H]2SC1(C)C
[A] 1000
